Below, each entry is listed with its recorded logP.
Lab note: jot the number down without any unit.

N#Cc1c(Cl)cccc1Cl ... 2.65
C1=CCCC=CCCC=CCC1 ... 4.12

(Q) Can you look up the measured logP of "C1=C\CC/C=C\CC/1" for me?
(A) 3.16

---

OBSERVED_PROPERTY: logP
Answer with a bare number; do not write a unit.

(Q) Dear colleague, I am looking for the recorded logP of the following compound: "COc1nc(C(Cl)(Cl)Cl)c(Cl)c(OC)c1Cl"
(A) 5.48

---

Experiment: method code SF-TN, from DOI: 10.1002/ardp.19763091008, PMID: 1008678
OBSERVED_PROPERTY: logP
Lab note: jot down the number only; don't add units.

(Q) Could you tell me which logP is on file for CCNC(=O)C1C2CC3C(OC(=O)C31)C2O (stereo unspecified) ?
(A) -0.35
